target: human NR1/NR2B ion channels (Homo sapiens (Human), UniProt Q05586+Q13224); test: HNR2BC: calcium influx assay on cloned human NR1/NR2B ion channels expressed in HEK cells; conditions: HEK cells with hNR1/NR2B, 100 μM glutamate + 100 μM glycine, 3 parameter plot
Sequence (Q13224 27-1484, other chains not shown): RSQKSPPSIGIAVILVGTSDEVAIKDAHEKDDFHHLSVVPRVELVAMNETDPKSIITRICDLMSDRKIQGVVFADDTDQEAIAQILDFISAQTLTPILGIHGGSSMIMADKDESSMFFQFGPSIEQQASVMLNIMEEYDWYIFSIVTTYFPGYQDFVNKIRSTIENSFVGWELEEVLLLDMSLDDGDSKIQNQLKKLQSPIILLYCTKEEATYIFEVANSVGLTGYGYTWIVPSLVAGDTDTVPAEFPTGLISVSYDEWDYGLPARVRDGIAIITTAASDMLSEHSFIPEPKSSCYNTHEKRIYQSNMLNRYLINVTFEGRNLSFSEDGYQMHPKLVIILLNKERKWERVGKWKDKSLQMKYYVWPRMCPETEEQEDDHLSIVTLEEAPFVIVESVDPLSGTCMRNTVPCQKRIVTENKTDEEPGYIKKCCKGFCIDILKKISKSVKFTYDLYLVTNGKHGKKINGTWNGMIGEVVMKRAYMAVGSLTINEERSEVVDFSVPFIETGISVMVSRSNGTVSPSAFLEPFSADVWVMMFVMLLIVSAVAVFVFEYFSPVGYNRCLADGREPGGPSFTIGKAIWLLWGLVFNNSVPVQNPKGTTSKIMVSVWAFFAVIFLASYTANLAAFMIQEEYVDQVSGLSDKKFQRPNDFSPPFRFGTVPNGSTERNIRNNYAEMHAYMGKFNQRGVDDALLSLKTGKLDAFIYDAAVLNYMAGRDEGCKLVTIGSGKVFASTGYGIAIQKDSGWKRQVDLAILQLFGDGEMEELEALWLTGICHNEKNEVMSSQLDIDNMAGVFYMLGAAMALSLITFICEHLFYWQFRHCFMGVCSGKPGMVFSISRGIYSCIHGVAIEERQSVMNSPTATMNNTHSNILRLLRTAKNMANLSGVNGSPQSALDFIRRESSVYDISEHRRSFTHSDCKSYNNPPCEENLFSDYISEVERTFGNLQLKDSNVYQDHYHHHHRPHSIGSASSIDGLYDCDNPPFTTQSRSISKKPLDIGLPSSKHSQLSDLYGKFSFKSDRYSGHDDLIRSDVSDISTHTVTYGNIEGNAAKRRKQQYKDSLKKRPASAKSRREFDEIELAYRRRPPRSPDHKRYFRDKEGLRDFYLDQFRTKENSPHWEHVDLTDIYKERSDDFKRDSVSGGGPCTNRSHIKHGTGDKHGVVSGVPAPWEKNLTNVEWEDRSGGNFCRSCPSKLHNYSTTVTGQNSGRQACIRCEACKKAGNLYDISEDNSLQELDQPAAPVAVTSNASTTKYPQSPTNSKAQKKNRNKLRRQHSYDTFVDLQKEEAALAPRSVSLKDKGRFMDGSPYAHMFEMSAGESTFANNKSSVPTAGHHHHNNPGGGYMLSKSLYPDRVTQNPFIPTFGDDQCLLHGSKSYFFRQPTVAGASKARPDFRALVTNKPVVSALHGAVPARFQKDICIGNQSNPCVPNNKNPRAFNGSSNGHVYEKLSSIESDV
Each record is given Criterion met if its reported IC50 is strictly below 2 µM. Records at or above 2 µM are given Criterion not met.

input: Confirm or reject: IC50 of CCCc1cc(Cn2cc(-c3ccc(F)c(C(F)F)c3)cn2)n[nH]1 lies strictly below 2 µM
output: Criterion not met

input: Lab log: compare recorded IC50 with 2 µM; is it strictly lower for Cn1ccc(Cn2cc(-c3ccc(Cl)cc3)cn2)n1 ?
output: Criterion not met

input: For this compound, is IC50 lower than 2 µM? Cc1n[nH]c(C)c1Cn1cc(-c2ccc(Cl)c(OC(F)F)c2)cn1
output: Criterion not met

input: Item CCc1cc(Cn2cc(-c3ccc(F)c(C(F)F)c3)cn2)n[nH]1 : IC50 beneath 2 µM, strictly?
output: Criterion not met

input: Dear reviewer, please state whether Cn1ccc(Cn2cc(-c3ccc(Cl)c(OC(F)F)c3)cn2)n1 has IC50 strictly beneath 2 µM.
output: Criterion not met

input: Quick check: does Cn1cc(Cn2cc(-c3ccc(Cl)c(OC(F)F)c3)cn2)cn1 have IC50 under 2 µM?
output: Criterion met

input: Please indicate whether the reported IC50 of Cn1ccc(Cn2cc(-c3ccc(F)c(C(F)F)c3)cn2)n1 [Example 31, Succinate] is strictly below 2 µM.
output: Criterion not met

input: Confirm or reject: IC50 of FC(F)c1cc(-c2cnn(Cc3cc[nH]n3)c2)ccc1Cl lies strictly below 2 µM
output: Criterion met

input: Is the reported IC50 for Cc1cc(Cn2cc(-c3ccc(F)c(C(F)F)c3)cn2)[nH]n1 strictly below 2 µM?
output: Criterion not met

----------
For each entry below, report its IC50 value.
Molecular target: rat NR1/NR2B receptor (Rattus norvegicus (Rat), UniProt P35439+Q00960)
Sequence (Q00960 27-1482, other chains not shown): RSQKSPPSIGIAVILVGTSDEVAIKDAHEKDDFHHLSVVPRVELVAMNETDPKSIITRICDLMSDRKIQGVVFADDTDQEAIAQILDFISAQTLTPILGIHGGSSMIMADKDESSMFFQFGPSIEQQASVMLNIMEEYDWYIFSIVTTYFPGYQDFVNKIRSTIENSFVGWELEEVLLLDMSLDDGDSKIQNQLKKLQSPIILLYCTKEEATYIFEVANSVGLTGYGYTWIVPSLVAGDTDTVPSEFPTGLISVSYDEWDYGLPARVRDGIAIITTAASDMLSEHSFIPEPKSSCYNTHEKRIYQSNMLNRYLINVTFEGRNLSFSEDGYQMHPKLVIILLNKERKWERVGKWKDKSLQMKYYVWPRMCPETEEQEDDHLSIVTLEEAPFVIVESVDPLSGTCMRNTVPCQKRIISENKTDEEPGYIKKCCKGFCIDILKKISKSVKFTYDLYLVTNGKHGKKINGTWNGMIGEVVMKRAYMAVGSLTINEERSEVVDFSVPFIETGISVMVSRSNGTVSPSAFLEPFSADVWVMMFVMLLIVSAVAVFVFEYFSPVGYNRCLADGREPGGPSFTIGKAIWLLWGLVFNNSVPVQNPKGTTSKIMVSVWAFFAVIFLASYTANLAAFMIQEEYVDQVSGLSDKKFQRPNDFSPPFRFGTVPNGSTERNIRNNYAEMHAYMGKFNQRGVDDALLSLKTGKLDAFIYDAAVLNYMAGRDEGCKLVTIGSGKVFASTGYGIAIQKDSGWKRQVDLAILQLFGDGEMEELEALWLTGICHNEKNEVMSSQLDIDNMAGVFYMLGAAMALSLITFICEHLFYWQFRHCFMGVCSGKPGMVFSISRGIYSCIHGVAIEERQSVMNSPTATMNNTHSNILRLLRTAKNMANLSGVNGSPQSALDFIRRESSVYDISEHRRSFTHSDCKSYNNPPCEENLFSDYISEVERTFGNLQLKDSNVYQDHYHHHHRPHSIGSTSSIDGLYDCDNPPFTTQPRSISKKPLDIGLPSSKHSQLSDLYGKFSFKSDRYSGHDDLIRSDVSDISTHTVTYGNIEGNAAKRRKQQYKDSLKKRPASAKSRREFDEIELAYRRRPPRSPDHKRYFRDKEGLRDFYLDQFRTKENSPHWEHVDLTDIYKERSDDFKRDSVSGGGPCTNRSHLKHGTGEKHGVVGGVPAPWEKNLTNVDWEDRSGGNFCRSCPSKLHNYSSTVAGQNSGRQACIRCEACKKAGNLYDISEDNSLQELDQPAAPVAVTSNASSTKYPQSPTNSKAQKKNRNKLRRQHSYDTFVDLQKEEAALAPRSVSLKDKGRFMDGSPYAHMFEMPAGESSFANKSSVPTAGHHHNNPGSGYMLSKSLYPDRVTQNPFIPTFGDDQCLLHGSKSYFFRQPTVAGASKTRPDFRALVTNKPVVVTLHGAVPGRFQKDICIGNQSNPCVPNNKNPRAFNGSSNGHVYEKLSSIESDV
Assay: NR2B binding assay: inhibition of specific [3H]-Ifenprodil binding to the rat NR1/NR2B receptor
Details: [3H]-Ifenprodil binding, rat brain membranes
Experimental: Biological Assays Inhibition of Specific Binding to the Rat NR1/NR2B Receptor Male Wistar rats (180 to 200 g) were killed by suffocation in a CO2 chamber for two minutes. Whole brains without cerebellum were removed and dissected on ice, placed into closed vials and stored at −70° C. Membrane fractions were prepared and tested using standard techniques. […] The optimal amount of membrane preparation in the assay was determined and optimized for each membrane preparation separately before the test. […]
# unit: nM | format: bare number

input: Find IC50 for Cc1cc(Cn2cc(-c3ccc(Cl)c(OC(F)F)c3)cn2)n(C)n1 on rat NR1/NR2B receptor (Rattus norvegicus (Rat), UniProt P35439+Q00960) and write it down.
output: 146

input: Report value: IC50, system: rat NR1/NR2B receptor (Rattus norvegicus (Rat), UniProt P35439+Q00960), compound: FC(F)Oc1cc(-c2cnn(Cc3ccn(C4CCCC4)n3)c2)ccc1Cl
output: 280

input: # lookup: rat NR1/NR2B receptor (Rattus norvegicus (Rat), UniProt P35439+Q00960) IC50, key = Cn1ccc(Cn2cc(-c3ccc(Cl)c(C(F)(F)F)c3)cn2)n1
output: 1010

input: Return reported IC50 for target or system rat NR1/NR2B receptor (Rattus norvegicus (Rat), UniProt P35439+Q00960), item Clc1ccc(-c2cnn(Cc3cc[nH]n3)c2)cc1 .
output: 1040

input: Provide IC50, recorded with rat NR1/NR2B receptor (Rattus norvegicus (Rat), UniProt P35439+Q00960), of Cn1ccc(Cn2cc(-c3ccc(Br)cc3)cn2)n1
output: 4720

input: # return IC50 of Cc1cc(Cn2cc(-c3ccc(F)c(C(F)F)c3)cn2)n(C)n1 (system: rat NR1/NR2B receptor (Rattus norvegicus (Rat), UniProt P35439+Q00960))
output: 323

input: Using rat NR1/NR2B receptor (Rattus norvegicus (Rat), UniProt P35439+Q00960) as the test system, report measured IC50 of Cn1cc(Cn2cc(-c3ccc(Cl)cc3)cn2)cn1 .
output: 8280

input: Consider the compound CCCc1cc(Cn2cc(-c3ccc(Cl)c(OC(F)F)c3)cn2)n[nH]1 tested on rat NR1/NR2B receptor (Rattus norvegicus (Rat), UniProt P35439+Q00960); state its IC50.
output: 163

input: Provide IC50, tested on rat NR1/NR2B receptor (Rattus norvegicus (Rat), UniProt P35439+Q00960), for CCc1cc(Cn2cc(-c3ccc(F)c(C(F)F)c3)cn2)n[nH]1 .
output: 47
